// Mono lookup, one value per entry
- Organism: Rattus norvegicus
- Assay Summary: Open TG-GATES - Regimen: Single
- Assay type: toxicity, organism-based, Sprague-Dawley
- Parameters: regimen Single, gender Male, age 6 weeks
- Condition Parameters: in vivo, po, 0 mg/kg, 9 h, tissue Blood, route gavage, dose level Control
Measured Parameter: Mono (%)

> print(dat)
                                   compound  measurement.units  measured.value
1          CN(C)CCCN1c2ccccc2Sc2ccc(Cl)cc21                  %             2.6
2  CCCCNC(=O)NS(=O)(=O)c1ccc(C)cc1 [TOLBUTAMIDE]                  %               2
3   CC(S)C(=O)NCC(=O)O (stereo unspecified)                  %               2
4                CCN(CC)C(=S)SSC(=S)N(CC)CC                  %             2.6
5  COc1cc2ncnc(Nc3ccc(F)c(Cl)c3)c2cc1OCCCN1CCOCC1                  %             3.4
6  NS(=O)(=O)c1cc(C(=O)O)c(NCc2ccco2)cc1Cl [FUROSEMIDE]                  %             2.2
